Task for the reader: assign each of the following binders its reported koff.
EXPERIMENTAL SYSTEM: T1, cynomolgus IL-36α, truncated (cynomolgus macaque (Macaca fascicularis), UniProt Q9UHA7 14-158 (human entry), limits assumed)
T1 construct: Untagged after removal of the His-SUMO tag; also called cynomolgus IL-36 alpha; cyIL-36alpha
T1 chain: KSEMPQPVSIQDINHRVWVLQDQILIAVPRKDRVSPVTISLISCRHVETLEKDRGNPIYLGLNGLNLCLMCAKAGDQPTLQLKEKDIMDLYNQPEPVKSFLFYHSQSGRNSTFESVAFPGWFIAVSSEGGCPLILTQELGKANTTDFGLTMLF
EXPERIMENTAL PROTOCOL: SPR, Biacore, 1:1 Langmuir fit; heads of c3 and c4 printed swapped
Hi! Could you send only the number? It should be in s⁻¹, unit omitted.

IN: Requested field: koff. Item: 144L249B LV9 HV10b (antibody, V domains shown, Humanized) VH: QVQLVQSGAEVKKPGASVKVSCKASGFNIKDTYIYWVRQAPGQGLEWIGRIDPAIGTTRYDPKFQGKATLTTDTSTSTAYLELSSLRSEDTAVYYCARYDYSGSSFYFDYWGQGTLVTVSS VL: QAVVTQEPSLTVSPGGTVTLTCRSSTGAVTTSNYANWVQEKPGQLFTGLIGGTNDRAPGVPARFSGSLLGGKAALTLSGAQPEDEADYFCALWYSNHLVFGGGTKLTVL
OUT: 0.00126

IN: Requested field: koff. Item: 144D464A LV10re HV10b (antibody, V domains shown, Humanized) VH: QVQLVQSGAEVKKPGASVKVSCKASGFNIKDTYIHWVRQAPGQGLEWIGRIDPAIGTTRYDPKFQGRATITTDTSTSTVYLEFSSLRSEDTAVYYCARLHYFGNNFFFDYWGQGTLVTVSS VL: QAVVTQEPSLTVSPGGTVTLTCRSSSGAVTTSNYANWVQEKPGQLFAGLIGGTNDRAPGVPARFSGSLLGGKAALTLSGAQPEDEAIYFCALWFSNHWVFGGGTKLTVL
OUT: 0.000415

IN: Requested field: koff. Item: 144L249B LV9 HV11 (antibody, V domains shown, Humanized) VH: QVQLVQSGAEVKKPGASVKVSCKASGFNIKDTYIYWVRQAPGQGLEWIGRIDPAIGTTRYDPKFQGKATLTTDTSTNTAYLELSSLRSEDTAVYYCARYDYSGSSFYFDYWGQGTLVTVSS VL: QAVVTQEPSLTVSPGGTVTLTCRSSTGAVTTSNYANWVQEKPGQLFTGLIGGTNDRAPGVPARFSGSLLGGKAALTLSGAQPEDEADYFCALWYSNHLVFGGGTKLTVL
OUT: 0.00135
